- target_of_assay: T1, cynomolgus NKp46 (cynomolgus monkey, UniProt Q95JB9 22-306)
- T1 construct: also called cyno NKp46; cynomolgus monkey NKp46
- run_description: flow cytometry, HEK293F cells transfected with cyno NKp46
property_label: Bmax (MFI)
Report as: number unit

Return value of Bmax (MFI) for input NKp46-hz5D7v3-Fc* (Fc fusion, VHH-Fc fusion with an IgG1 Fc lacking a hinge (Fc*); also called NKp46-bz5D7v3-Fc*) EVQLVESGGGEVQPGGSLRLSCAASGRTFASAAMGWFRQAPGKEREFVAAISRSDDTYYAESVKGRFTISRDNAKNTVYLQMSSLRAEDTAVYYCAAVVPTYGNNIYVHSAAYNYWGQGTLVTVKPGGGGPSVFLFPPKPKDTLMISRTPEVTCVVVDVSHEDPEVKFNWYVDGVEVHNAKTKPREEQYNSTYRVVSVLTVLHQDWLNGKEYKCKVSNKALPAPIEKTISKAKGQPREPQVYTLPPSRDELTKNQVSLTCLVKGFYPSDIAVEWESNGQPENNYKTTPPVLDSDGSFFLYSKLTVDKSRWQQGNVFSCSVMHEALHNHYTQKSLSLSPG , no commentary. 51800 MFI
